# Target system: STING AQ-variant (Homo sapiens, UniProt Q86WV6, G230A/H232R/R293Q)
# Sequence (Q86WV6 whole entry G230A/H232R/R293Q): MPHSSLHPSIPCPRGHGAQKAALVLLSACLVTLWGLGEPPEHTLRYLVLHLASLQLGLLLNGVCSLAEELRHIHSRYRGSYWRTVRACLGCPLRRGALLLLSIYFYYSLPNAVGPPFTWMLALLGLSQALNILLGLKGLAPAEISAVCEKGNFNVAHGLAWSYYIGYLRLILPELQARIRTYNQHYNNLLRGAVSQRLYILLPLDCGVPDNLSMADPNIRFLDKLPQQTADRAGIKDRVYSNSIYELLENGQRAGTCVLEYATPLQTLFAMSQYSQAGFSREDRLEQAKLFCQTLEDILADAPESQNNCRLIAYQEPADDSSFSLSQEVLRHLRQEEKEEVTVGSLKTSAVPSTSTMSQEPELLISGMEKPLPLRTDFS
# Assay: IRF-inducible SEAP reporter assay in THP1-Blue ISG cells, STING AQ-variant
# Condition summary: 24 hours incubation
Property name: EC50 (nM)

These recorded examples may help you get a feel for the data.
Cc1cccc2c(-c3cccc4nn(C)cc34)nn(-c3ccc(N4CCC(S(N)(=O)=O)CC4)nc3)c12 ... 700
Cc1cccc2c(-c3cccc4nn(C)cc34)nn(-c3ccc(N4CCN(C(N)=O)CC4)nc3)c12 ... 600
CC(=O)N1CCN(c2ccc(-n3nc(-c4cccc5nn(C)cc45)c4cccc(C)c43)cn2)CC1 ... 700

a = Cc1cc2c(-c3nn(-c4ccc(N5CCC(C(=O)O)CC5)nc4)c4c(C)cccc34)cccc2cn1
b = Cc1cccc2c(-c3cccc4nn(C)cc34)nn(-c3ccc(N4CCN(C=O)CC4)nc3)c12
c = Cc1cccc2c(-c3cccc4nn(C)cc34)nn(-c3ccc(N4CCC5(CC4)C(=O)N(C)C(=O)N5C)nc3)c12
d = CC(=O)NC1C2CN(c3ccc(-n4nc(-c5cccc6nn(C)cc56)c5cccc(C)c54)cn3)CC21 (centres unmarked)
Q: Ascending sort, EC50. List the labels according to the requested ordering.
A: b, c, d, a
(b: 200 nM, c: 700 nM, d: 1200 nM, a: 3000 nM)

* * *

# Target system: STING HAQ-variant (Homo sapiens, UniProt Q86WV6, G230A/H232R/R293Q/R71H)
# Construct: parental THP1-Blue™ ISG cell lines (which express endogenously HAQ)
# Sequence (Q86WV6 whole entry R71H/G230A/H232R/R293Q): as the sequence (Q86WV6 whole entry G230A/H232R/R293Q) above, with R71H counted along it
# Assay: IRF-inducible SEAP reporter assay in THP1-Blue ISG cells, STING HAQ-variant
# Condition summary: STING HAQ-variant (parental or re-introduced), 24 hours incubation
Property name: EC50 (nM)

Cc1cc2c(-c3nn(-c4ccc(N5CCC(C(=O)O)CC5)nc4)c4c(C)cccc34)cccc2cn1 ... 3000

I = Cc1cccc2c(-c3cccn4nccc34)nn(-c3ccc(N4CCC(C(=O)O)CC4)nc3)c12
II = Cn1cc2c(-c3nn(-c4ccc(N5CCC(C(=O)O)CC5)nc4)c4c(C(F)(F)F)cccc34)cccc2n1
III = Cc1cccc2c(-c3cccc4nn(C)cc34)nn(-c3ccc(N4CCS(=O)(=O)CC4)nc3)c12
IV = Cc1cccc2c(-c3cccc4nn(C)cc34)nn(-c3ccc(N4CCC(S(C)(=O)=O)CC4)nc3)c12
V = Cc1cccc2c(-c3cccc4nn(C)cc34)nn(-c3ccc(N4CC5CC4CO5)nc3)c12 (stereo not shown)
Q: Arrange items by their EC50 values in increasing order. Answer format: list of labels, ordered as asked.
A: IV, III, II, V, I

1 = Cc1cc2c(-c3nn(-c4ccc(N5CC6C(C5)C6C(=O)O)nc4)c4c(C)cccc34)cccn2n1 (stereo not shown)
2 = Cn1cc2c(-c3nn(-c4ccc(N5CC6C(C5)C6C(=O)O)nc4)c4c(Br)cccc34)cccc2n1 (stereo not shown)
Q: Between the entries labeled 1 and 2 , whose measured EC50 is lower? Reply with the label of the item you choose.
A: 2
(2: 700 nM, 1: 1600 nM)

I = Cc1cccc2c(-c3cccc4nn(C)cc34)nn(-c3ccc(N4CCC5(CC4)CNC5=O)nc3)c12
II = Cc1cccc2c(-c3cccc4nn(C)cc34)nn(-c3ccc(N4CCN(C=O)CC4)nc3)c12
III = Cc1cccc2c(-c3cccc4nn(C)cc34)nn(-c3ccc(-c4ccc(S(C)(=O)=O)cc4)nc3)c12
IV = Cc1c(-c2cnn(C)c2)ccc2c(-c3cccc4nn(C)cc34)nn(-c3ccc(N4CC5C(C4)C5C(=O)O)nc3)c12 (stereo not shown)
Q: Provide the items ranked by increasing EC50. Put the labels in the requested order and write them down.
A: IV, II, I, III
(IV: 80 nM, II: 300 nM, I: 2100 nM, III: 4400 nM)
